- Test system: K-562 leukemia
- test.description: NCI-60 one-dose screen, 48 h (100 = growth as untreated, 0 = no growth, -100 = all killed)
- recorded.conditions: 10 µM unless noted
The panel holds about 83,000 compounds, 20% with a hit somewhere; the sample as a whole holds those more often.
Entries annotated with measured growth
Only the number, expressed in %, is required.

Problem: Which growth is listed for COc1ccc(-c2nc(C#N)c(NCC(c3ccc(Cl)cc3)N3CCCCC3)o2)cc1 (stereo not drawn) ?
Solution: 76.7

Problem: Which growth is listed for "COc1cc(C(=O)N2CCN(c3ccccc3OC)CC2)c(NC(=O)c2cnccn2)cc1OCc1ccccc1" ?
Solution: 10.8
